activity score (negative = inhibition) by entry:
- Target or test system: Glycogen synthase kinase-3 beta (Homo sapiens) (UniProt P49841)
- Sequence (P49841 whole entry, looked up): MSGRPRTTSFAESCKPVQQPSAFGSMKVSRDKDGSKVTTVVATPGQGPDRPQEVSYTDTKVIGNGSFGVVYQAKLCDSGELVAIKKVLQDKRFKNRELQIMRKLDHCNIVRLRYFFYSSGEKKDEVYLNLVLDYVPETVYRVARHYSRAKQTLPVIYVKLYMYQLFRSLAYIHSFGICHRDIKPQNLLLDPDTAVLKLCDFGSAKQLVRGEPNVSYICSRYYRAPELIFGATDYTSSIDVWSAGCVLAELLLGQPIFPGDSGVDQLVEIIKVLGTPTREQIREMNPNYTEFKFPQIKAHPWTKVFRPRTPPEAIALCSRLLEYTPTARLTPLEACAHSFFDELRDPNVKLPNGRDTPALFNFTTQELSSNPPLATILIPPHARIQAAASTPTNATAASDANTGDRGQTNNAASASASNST
- Assay info: blockers of GSK3B enzyme activity – biochemical, cell-free homogeneous, HTS, primary screen (AID 2097);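 further: 0% = median DMSO wells and -100% = median GW8510 positive control wells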
- Run conditions: GST-GSK3beta kinase, ADP-Glo luminescence, 60 min; at 10 µM; active compounds read low
In all, about 300,000 compounds went through this assay and about 120 (0.04%) were called active. The sample as a whole holds a higher share of actives than the screen did.
Record the value in %, omitting the unit from your answer.

Some solved cases for reference:
>>> reading("NNC(=O)c1nnn(-c2nonc2N)c1CN1CCCC1")
2.11
>>> reading("O=C(CSc1ccc(-c2ccc(-n3cccn3)cc2)nn1)Nc1ccc([N+](=O)[O-])cc1")
-1.44
>>> reading("Nc1nonc1-n1nnc(C(=O)N/N=C/c2ccccc2O)c1CN1CCCC1")
-36.9
>>> reading("CCC(C)(C)NC(=O)C(c1cccc(OC)c1OC)N(CC(C)C)C(=O)CCC(=O)Nc1cc(C)on1 (stereo not given)")
-2.19

Exercise: // fetch Glycogen synthase kinase-3 beta (Homo sapiens) (UniProt P49841) activity score (negative = inhibition) for "Cc1ccc(NC(=O)c2ccc(CSc3ncnc4nc[nH]c34)cc2)c(C)c1"
Key: -7.49

* * *

- Target or test system: Glycogen synthase kinase-3 beta (Homo sapiens)
- Assay info: blockers of GSK3B enzyme activity – biochemical, cell-free homogeneous, HTS, primary screen (AID 2097);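 further: 0% = median DMSO wells and -100% = median GW8510 positive control wells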
- Run conditions: GST-GSK3beta kinase, ADP-Glo luminescence, 60 min; at 10 µM; active compounds read low
The whole screen tested about 300,000 compounds, of which about 120 (0.04%) were called active. The sample holds actives, similar compounds and a random draw of the others, so the mix is not that of the screen.
Reported endpoint: activity score (negative = inhibition) (%)
Answer format: numeric, % implied, no suffix.

>>> reading("NC(=O)C[n+]1cccc(C(N)=O)c1")
2.13
>>> reading("COCCn1c(C)cc(C(=O)CSc2nc3ccccc3c(=O)n2C(C)COC)c1C (centres undefined)")
-2.4

Exercise: Notebook entry, Glycogen synthase kinase-3 beta (Homo sapiens) assay: activity score (negative = inhibition) of CCN(C(=O)C1CCCN(c2nc(-c3ccc(OC)cc3)no2)C1)c1ccc(OC)cc1 (centres undefined) = ?
Key: -3.3

Exercise: Query for Glycogen synthase kinase-3 beta (Homo sapiens): what activity score (negative = inhibition) does the record show for "COc1ccc(N(CC(=O)N2CCCCCC2)S(=O)(=O)c2ccccc2)cc1" ?
Key: -4.12

* * *

- Target or test system: Glycogen synthase kinase-3 beta (Homo sapiens)
- Assay info: blockers of GSK3B enzyme activity – biochemical, cell-free homogeneous, HTS, primary screen (AID 2097);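 further: 0% = median DMSO wells and -100% = median GW8510 positive control wells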
- Run conditions: GST-GSK3beta kinase, ADP-Glo luminescence, 60 min; at 10 µM; active compounds read low
The whole screen tested about 300,000 compounds, of which about 120 (0.04%) were called active. The list comes from a sample in which actives are over-represented; it also holds close analogues and randomly drawn compounds.
Property: activity score (negative = inhibition); scope: individual compounds

Recorded activity score (negative = inhibition), per entry:
>>> reading("COc1ccccc1N1CCC(N2CCN(CC(C)(C)C)C(CCO)C2)CC1 (stereo not given)")
"-1.04% (inactive)"
>>> reading("CN1CCN(S(=O)(=O)c2ccc(Nc3ccc(F)cc3)nc2)CC1")
"2.53% (inactive)"
>>> reading("CN(CCC1CCOCC1)C(=O)CC1C(=O)NCCN1Cc1cccc(F)c1 (stereo not given)")
"-0.992% (inactive)"
>>> reading("CC(OC(=O)c1ccc(S(=O)(=O)N2CCOCC2)cc1)c1ccccc1 (stereo not given)")
"-0.509% (inactive)"
>>> reading("Cc1nnsc1S(=O)(=O)Cc1ccccc1Cl")
"-0.424% (inactive)"

Exercise: Give its activity score (negative = inhibition) value. Item: "COc1cc(NC(=O)C2CCN(c3cnccn3)CC2)cc(OC)c1"
Key: -0.841% (inactive)

Exercise: Requested read-out: activity score (negative = inhibition). Entry: "COc1cc(/C=N\Nc2ccc([N+](=O)[O-])cn2)ccc1OCC(=O)O"
Key: -70.1% (active)

Exercise: For the compound shown here, "N/C(=N\OC(=O)CCCC(=O)O)c1ncc(C(F)(F)F)cc1Cl" , give the reported activity score (negative = inhibition).
Key: 1.16% (inactive)

Exercise: Could you tell me which activity score (negative = inhibition) is on file for "Cn1c(=O)c(=O)n(C)c2cc(S(=O)(=O)CCC(=O)N3CCCCC3)ccc21" ?
Key: 2.02% (inactive)

Exercise: Data request, read-out activity score (negative = inhibition), for "O=C(Nc1cccc(Cl)c1)Nc1ccccc1NS(=O)(=O)c1cccs1"
Key: 1.54% (inactive)

Exercise: For the compound "Cc1cc(/C=N/Nc2ccc([N+](=O)[O-])cn2)c(C)n1-c1cccc(C(=O)O)c1" , what activity score (negative = inhibition) is on record?
Key: -14.7% (inactive)
